Recorded measurements of GI50, one per entry
# Test system: RXF 393 renal
# PROCEDURE SUMMARY: NCI tumour cell line growth inhibition, 48 h

May I ask what GI50 has been recorded for CN1CCN(Cc2ccc(NC(=O)c3nc4ccc5[nH]ncc5c4c4c3CCC4)cc2C(F)(F)F)CC1 ?
1190 nM

Consider the molecule shown here: CNNC(=N\S(=O)(=O)c1cc(C(=O)Nc2ccc(Cl)cc2)c(Cl)cc1SCc1ccccc1)/N=C/c1ccc([N+](=O)[O-])s1 What is its recorded GI50?
> 100000 nM

Value lookup for GI50; key = CC1(C)CC(OCCCC[P+](c2ccccc2)(c2ccccc2)c2ccccc2)CC(C)(C)N1O
518 nM

Quick check: GI50 of CCOC(=O)c1ccc(Nc2sc(C(=O)c3cccc([N+](=O)[O-])c3)c(N)c2C#N)cc1 ?
167 nM

====

Consider the following molecules and their measured TGI readings.
# System: 786-0 renal
# PROCEDURE SUMMARY: NCI tumour cell line growth inhibition, 48 h

Take a look at these entries with their results.
MOLECULE	TGI
c1ccc(-c2nnc(Nc3ccc4c(c3)OCCO4)o2)c(NCc2ccncc2)c1	> 100 µM
COc1ccc(-c2cc(-c3cn[nH]c3-c3ccccn3)ccn2)cc1	> 25 µM
CCOC(=O)N1N=NC2C3OC(C[C@@]3(C#N)OC(C)=O)[C@H]21 (stereo partly specified)	> 100 µM

What does the data say about its TGI? Entry: O=C(NC(=S)NNC(=S)NNc1ccccc1)c1ccccc1
> 100 µM

Any idea what TGI was measured for c1ccc(N=c2sc3ccccc3sc2=Nc2ccccc2)cc1 ?
3.14 µM

So what does the record say about TGI for NC(CSc1nc2ccccn2c1[N+](=O)[O-])C(=O)O (stereo unspecified) ?
> 100 µM

====

# System: SK-OV-3 ovarian
# PROCEDURE SUMMARY: NCI tumour cell line growth inhibition, 48 h
READOUT TYPE: TGI

COMPOUND	TGI
CC1(C)CC(=O)c2c(ccc(C(=O)C[C@H](N)CO)c2N)O1	> 33.3 µM
NCCCC1NC(=O)/C(=C(O)/C=C/C2CCC[C@@H]2CC2SCCS2)C1=O (stereo partly specified)	> 100 µM

For the compound NC1CC(=O)c2csc(Cl)c21 (stereo unspecified) , what TGI is on record?
31.1 µM

Find the recorded TGI belonging to CCOC(=O)CCC(C(=O)OCC)n1nnc2ccc(Nc3c(C)[n+]([O-])c4cc(Cl)ccc4[n+]3[O-])cc21 (stereo unspecified) and report it.
> 100 µM

====

# Tested on: NCI-H23 lung
# PROCEDURE SUMMARY: NCI tumour cell line growth inhibition, 48 h; in the data active = GI50 below about 0.43 µM; inactive = the rest
Pick one: 1 (yes) = active, 0 (no) = inactive

Answered examples (9):
MOLECULE	TEST SYSTEM	CATEGORY LABEL
CCC[CH2][Ge]([CH2]CCC)([CH2]CCC)[O]C(=O)C(OC)c1ccccc1 (stereo not given)	NCI-H23 lung	0 (no)
CCC[CH2][Sn]([CH2]CCC)([O]C(=O)c1cc(OC)c(OC)cc1OC)[O]C(=O)c1cc(OC)c(OC)cc1OC	NCI-H23 lung	0 (no)
CCOC(=O)c1ccc(Nc2sc(C(=O)c3cccc([N+](=O)[O-])c3)c(N)c2C#N)cc1	NCI-H23 lung	1 (yes)
CC1(C)CC(OCCCC[P+](c2ccccc2)(c2ccccc2)c2ccccc2)CC(C)(C)N1O	NCI-H23 lung	1 (yes)
COc1cc(Cn2ccc3c2-c2oncc2CC3)cc(OC)c1	NCI-H23 lung	0 (no)
Cc1ccc(N=Nc2c(N)nn(-c3ccccc3)c2N)cc1	NCI-H23 lung	0 (no)
COc1cc2nc(N3CCCC3)nc(Nc3ccccc3)c2cc1OC	NCI-H23 lung	0 (no)
COc1ccc2c(c1)sc1nc(-c3ccccc3)c(-c3ccc(O)c(OC)c3)n12	NCI-H23 lung	0 (no)
O=c1oc2ccc(Cl)cc2c(=O)n1-c1cc(C(F)(F)F)cc(C(F)(F)F)c1	NCI-H23 lung	1 (yes)

Now turn to the next molecule.
Entry Cc1ncc(C(=O)Nc2ccc(CN3CCN(C)CC3)c(C(F)(F)F)c2)cc1C#Cc1cnc(N)c2ncccc12 : call = ?
0 (no)
